experiment: Clearance in Sprague-Dawley rat at 10 mg/kg, po or 2 mg/kg, iv; format: ADME, organism-based; conditions: in vivo
Parameter clearance: see the listing below.

[
  {
    "SMILES REPR": "COc1ncc(C(=O)NC2(C(=O)N[C@H](C)c3ccc(-n4nc(Cl)c5ccccc54)cc3F)CC2)s1",
    "clearance / mL/min/kg": 12.7
  },
  {
    "SMILES REPR": "C[C@@H](NC(=O)C1(NC(=O)c2cncc(Cl)n2)CC1)c1ccc(-n2nc(Cl)c3ccccc32)cc1F",
    "clearance / mL/min/kg": 105
  },
  {
    "SMILES REPR": "COc1cncc(C(=O)NC2(C(=O)N[C@H](C)c3ccc(-n4nc(Cl)c5ccccc54)cc3F)CC2)c1",
    "clearance / mL/min/kg": 7.8
  },
  {
    "SMILES REPR": "C[C@@H](NC(=O)C1(NC(=O)c2cncc(Br)c2)CC1)c1ccc(-n2nc(Cl)c3ccccc32)cc1F",
    "clearance / mL/min/kg": 2.5
  },
  {
    "SMILES REPR": "COc1cc(C(=O)NC2(C(=O)N[C@H](C)c3ccc(-n4nc(Cl)c5ccccc54)cc3F)CC2)on1",
    "clearance / mL/min/kg": 5.3
  }
]
